# Tested on: NCI-H522 lung
# EXPERIMENTAL_DETAILS: NCI-60 one-dose screen, 48 h
# TEST_CONTEXT: 10 µM unless noted
About 83,000 compounds went through this panel and 20% of them were active in at least one assay; those are over-represented in the sample as a whole. Active and inactive are the calls of the source. How the source made its calls: active means growth percent below 10; inactive means the rest.
# valid calls are TRUE for active, FALSE for inactive; nothing else

Below, 2 compounds whose answers are already recorded.
COMPOUND	TESTED_ON	ASSIGNED_LABEL
CCC1C(=O)COC1=O (configuration not stated)	NCI-H522 lung	FALSE
Cc1ccc(Sc2sc(-c3ccccc3)nc2[P+](c2ccccc2)(c2ccccc2)c2ccccc2)cc1	NCI-H522 lung	TRUE

// param item: Cc1ccc(S(=O)(=O)Nc2ccc(-c3cc(-c4cccc(F)c4)c(C#N)c(=O)[nH]3)cc2)cc1 ; yields the recorded call FALSE

Item: Oc1cccc2oc(=S)[nH]c12 FALSE

Item: Clc1cc(Cl)cc(Nc2ccc3c(OCCCN4CCOCC4)cccc3n2)c1 TRUE

Item: NCCn1cc(-c2nc(-c3c[nH]c4ncccc34)cs2)c2cc(F)ccc21 FALSE

Item: O=c1[nH]c(=S)[nH]c2nc[nH]c12 FALSE

* * *

# System: RXF 393 renal
# EXPERIMENTAL_DETAILS: NCI-60 one-dose screen, 48 h
# TEST_CONTEXT: 10 µM unless noted
About 83,000 compounds went through this panel and 20% of them were active in at least one assay; those are over-represented in the sample as a whole. Active and inactive are the calls of the source. The calls were made as follows: active = growth percent below 10; inactive = the rest.
# valid calls are T for active, F for inactive; nothing else

COMPOUND	ASSIGNED_LABEL
Cc1nnc2nc(N)[nH]n2c1=O	F
C/C(=C(/c1ccccc1)c1ccc(N2C(=O)c3cccc4c(NCc5ccccc5)ccc(c34)C2=O)cc1)c1ccccc1	F
COC(=O)[C@]12CC[C@@H](C)[C@H](C)[C@@H]1C1=CC[C@@H]3[C@@]4(C)C=C(O)C(=O)C(C)=C4CC[C@@]3(C)[C@]1(C)CC2	F
C=C1C(=O)O[C@H]2[C@H]1CC/C(Cn1cc(-c3ccc(OC)cc3)nn1)=C\CC[C@@]1(C)O[C@@H]21	T

// param item: COc1ccc(/C=C2\N=C(c3ccccc3)N(c3cc(OC)c(OC)cc3C(=O)N3N=C(C)CC3=O)C2=O)cc1 ; yields the recorded call F

Item: O=C1CCC/C=C\C[C@H]2C=C(Cl)C(=O)/C2=C/C[C@H](CCCCC(F)(F)F)OC(=O)CCC/C=C\C[C@H]2C=C(Cl)C(=O)/C2=C/C[C@H](CCCCC(F)(F)F)O1 T

Item: CCOC(=O)c1ccc2c(c1)[n+](=O)c(C(=O)C1CCCS1)c(C(F)(F)F)n2[O-] (stereo unspecified) T

Item: O=S(=O)(NCCNc1cc(-c2cn(-c3ccccc3)nc2-c2cccc(O)c2)ccn1)c1ccc(C(F)(F)F)cc1 F

Item: CC1(C)C(=O)CC[C@]2(C)[C@H]3C(=O)C=C4[C@@H]5C[C@@](C)(C(=O)NCCNCCN)CC[C@]5(C)CC[C@@]4(C)[C@]3(C)CC[C@@H]12 F

Item: CC(C)C[C@@H](NC(=O)[C@@H](Cc1ccccc1)NC(=O)c1cnccn1)B1O[C@H]2[C@H](O)[C@@H](C(=O)NCCCC[C@@H]3NC(=O)[C@@H](Cc4ccccc4)NC(=O)[C@H](CC(=O)O)NC(=O)CNC(=O)[C@H](CCCN=C(N)N)NC3=O)O[C@@H](CN)[C@H]2O1 T
